The origin of these recorded values is patent US9944643B2.

# measured.target: purified human Factor XIa (Homo sapiens (Human))
# Sequence (P03951 whole entry, looked up): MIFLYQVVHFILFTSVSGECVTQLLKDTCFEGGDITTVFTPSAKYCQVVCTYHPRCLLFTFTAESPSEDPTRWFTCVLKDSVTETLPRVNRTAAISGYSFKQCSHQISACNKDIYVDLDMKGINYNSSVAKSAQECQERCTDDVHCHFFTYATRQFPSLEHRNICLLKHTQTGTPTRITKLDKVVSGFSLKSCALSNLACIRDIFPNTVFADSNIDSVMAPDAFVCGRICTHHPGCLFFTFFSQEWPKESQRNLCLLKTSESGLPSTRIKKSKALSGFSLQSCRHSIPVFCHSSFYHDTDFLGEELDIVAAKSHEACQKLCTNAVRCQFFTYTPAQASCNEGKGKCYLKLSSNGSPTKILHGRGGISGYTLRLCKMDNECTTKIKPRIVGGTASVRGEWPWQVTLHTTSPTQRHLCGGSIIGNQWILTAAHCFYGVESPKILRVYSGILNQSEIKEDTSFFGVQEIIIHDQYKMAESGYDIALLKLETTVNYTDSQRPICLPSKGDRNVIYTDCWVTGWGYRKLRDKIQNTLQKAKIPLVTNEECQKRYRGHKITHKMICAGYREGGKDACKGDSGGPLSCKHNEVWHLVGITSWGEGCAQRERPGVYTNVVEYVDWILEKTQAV
# Sequence (P03951 whole entry partner, looked up): as the sequence (P03951 whole entry, looked up) above
For each of the compounds below, state its pKi.
One number for each entry, as −log10 of the molar value.

These recorded examples may help you get a feel for the data.
COC(=O)Nc1ccc2c(c1)N[C@@H](C(=O)O)CCCC[C@H](NC(=O)c1ccc(CN)c(C3CC3)c1)c1nc-2c[nH]1 [Example 3]; 10.00
COC(=O)Nc1ccc2c(c1)NC(=O)CCCC[C@H](NC(=O)c1ccc(CN)c(C3CC3)c1)c1nc-2c[nH]1 [Example 1]; 10.00
COC(=O)Nc1ccc2c(c1)NC(=O)CCCC[C@H](NC(=O)c1cnc(CN)c(C3CC3)c1)c1nc-2c[nH]1 [Example 2]; 8.96
COC(=O)Nc1ccc2c(c1)NC(=O)CCCC[C@H](NC(=O)c1ccc(CN)c(C3CC3)c1)c1nc-2c(Cl)[nH]1 [Example 5]; 10.30
CC(C)COC(=O)Nc1ccc2c(c1)NC(=O)[C@@H](C)CCC[C@H](NC(=O)c1ccc(CN)c(C3CC3)c1)c1cc-2ccn1 [Example 6]; 9.70
COC(=O)Nc1ccc2c(c1)NC(=O)[C@@H](C)CCC[C@H](NC(=O)c1ccc(CN)c(C3CC3)c1)c1cc-2ccn1 [Example 4]; 10.52
COCCOC(=O)Nc1ccc2c(c1)NC(=O)[C@@H](C)CCC[C@H](NC(=O)c1ccc(CN)c(C3CC3)c1)c1cc-2ccn1 [Example 8]; 10.00

Next:
INPUT: Need pKi, item C[C@H]1CCC[C@H](NC(=O)c2ccc(CN)c(C3CC3)c2)c2cc(ccn2)-c2ccc(NC(=O)OC3CCCC3)cc2NC1=O [Example 7]
OUTPUT: 9.52
